Details: in ethanol, 313.15 K
value-type: solubility (mole fraction)
Quick one: just the number, no unit, thanks!

Query :: Can you share its solubility (mole fraction)? I mean this compound: `CCOc1ccccc1C(N)=O`
Result :: 0.0313

* * *

Conditions: in acetonitrile, 303.15 K
value-type: solubility (mole fraction)
// no unit string in output, number only

Query :: I am curious: what solubility (mole fraction) value has been reported for `CCOc1ccccc1C(N)=O` ?
Result :: 0.0123

* * *

Details: in isopropanol, 308.15 K
value-type: solubility (mole fraction)
Hey, just send me the number, nothing else.

Query :: Reported solubility (mole fraction) for `CCOc1ccccc1C(N)=O` : what is it?
Result :: 0.0189
